assay: HepG2 cytotoxicity assay (CellTiter-Glo); conditions: human, HepG2 cells
Labelling: IC50 at 72 h reported below 20 µM becomes class 1; at or above becomes class 0.

Recorded results for 5 molecules are shown here.
{"columns": ["molecule", "assigned-category"],
 "data": [
  ["Cc1cc(OCCCNCCO)cc(C)c1Cl", "class 1"],
  ["CCOc1cc(C=C(C#N)c2nc(-c3ccc(OC)cc3)cs2)ccc1O", "class 0"],
  ["Cc1nn(-c2ccccc2)c2c1C(c1ccc(Cl)c(Cl)c1)C(C#N)=C(N)O2 (centres unmarked)", "class 0"],
  ["N#Cc1c(Cl)nc(N2CCOCC2)c(Cl)c1Cl", "class 0"],
  ["O=C(/C=C1\\C=CS(=O)(=O)C1)c1ccccc1", "class 1"]
]}

Identify whether the molecule `O=[N+]([O-])c1ccc(-c2nc(Cl)oc2-c2ccc([N+](=O)[O-])cc2)cc1` records IC50 at 72 h below 20 µM.
class 0

Identify whether the molecule `O=c1oc2ccccc2c2nn(Cc3ccccc3)nc12` records IC50 at 72 h below 20 µM.
class 0

Identify whether the molecule `CN(C)c1ccc(/C=C2\SC(=S)N(N)C2=O)cc1` records IC50 at 72 h below 20 µM.
class 0

Identify whether the molecule `CCCCNCCCCOc1ccc2ccccc2c1` records IC50 at 72 h below 20 µM.
class 1

Identify whether the molecule `Oc1ccccc1/N=C/c1c(O)c(Br)cc2oc3c(c12)CCCC3` records IC50 at 72 h below 20 µM.
class 1

Identify whether the molecule COC(=O)C1=C(C)OC(N)=C(C#N)C1c1ccc(Cl)c(Cl)c1 (centres unmarked) records IC50 at 72 h below 20 µM.
class 0

Identify whether the molecule `COc1ccc(Br)cc1/C=C(\C#N)c1nc2ccc(C)cc2[nH]1` records IC50 at 72 h below 20 µM.
class 1
